Reported AC50, Cytochrome P450 1A2 (Homo sapiens, UniProt P05177).

Request: State the recorded AC50 for this entry: CO/C(O)=C1\C(C)=NC(C)=C([N+](=O)[O-])[C@H]1c1ccccc1C(F)(F)F
Result: 31.6 µM (inconclusive)

Request: Next entry: Cc1nnc2ccccc2c1O
Result: 0.398 µM (inconclusive)

Request: Next entry: CCc1ccc(C(=O)N2CCC(c3nc4ccccc4s3)CC2)cc1
Result: 17.8 µM (inconclusive)

Request: Next entry: C/C(=N\n1nnnc1Nc1ccccc1)c1ccc(N)cc1
Result: 12.6 µM (inconclusive)

----------
- Tested on: P388/ADR
- EXPERIMENTAL DETAILS: cells
- Assay type: functional
- EXPERIMENTAL PARAMETERS: Mus musculus
Active and inactive are the calls of the source.
MEASUREMENT KIND: GI50

Consider the following illustrative entries.
COMPOUND	GI50
CNC(=O)OCc1nc(SSC(C)(C)C)n(C)c1COC(=O)NC	2.47 µM (inactive)
CC(=O)NCCCCCCNC(C)=O [HEXAMETHYLENEBISACETAMIDE]	3520 µM (inactive)

Request: State the recorded GI50 for this entry: N/C(=N\O)N/N=C\c1cc([N+](=O)[O-])cc([N+](=O)[O-])c1O
Result: 7.59 µM (inactive)

----------
// EC50 lookup, one value per entry
- TEST SYSTEM: UniProtKB G5EF15
- Sequence (G5EF15 whole entry, the tested form may be a part): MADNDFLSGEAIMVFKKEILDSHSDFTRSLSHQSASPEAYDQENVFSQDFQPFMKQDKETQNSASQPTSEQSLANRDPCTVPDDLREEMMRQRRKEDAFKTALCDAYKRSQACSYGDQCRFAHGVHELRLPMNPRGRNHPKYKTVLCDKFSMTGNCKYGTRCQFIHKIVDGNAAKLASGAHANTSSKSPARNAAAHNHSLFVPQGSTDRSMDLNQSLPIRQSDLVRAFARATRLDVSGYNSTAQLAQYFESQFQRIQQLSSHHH
- EXPERIMENTAL DETAILS: inhibitors of POS-1/mex-3 RNA binding, dose response, biochemical, fluorescence polarization (AID 1964);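 note: purified POS-1 fused to maltose binding protein made in E. coli; potency of compounds blocking POS-1 binding to fluorescent RNA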
Active and inactive are the calls of the source.

Consider the following illustrative entries.
MOLECULE	EC50
Cc1cc(/C=C2\C(=O)NC(=O)N(c3cccc(F)c3)C2=O)c(C)n1-c1ccc(C(=O)O)c(Cl)c1	> 300 µM (not active)
CCOC(=O)C1Nc2ccc(C)cc2C2C=CCC12 (stereo not drawn)	> 300 µM (not active)
Oc1nc2ccccc2nc1/C=C/c1ccc(F)cc1	41.9 µM (inconclusive)
COc1ccc(N/C=C2/C(=O)NC(=S)N(Cc3ccccc3)C2=O)c(OC)c1	> 300 µM (inconclusive)
CC1=C[C@@H]2c3cccc4[nH]cc(c34)C[C@H]2N(C)C1	11.2 µM (active)
C[C@@H]1O[C@@H](Oc2c(-c3cc(O)c(O)c(O)c3)oc3cc(O)cc(O)c3c2=O)[C@H](O)[C@H](O)[C@H]1O	15.8 µM (active)
Cc1ccc(NC(=O)CN2C(=O)S/C(=C\c3cccn3-c3cccc(C(=O)O)c3)C2=O)c(C)c1	> 300 µM (not active)
COC(=O)c1cc(C(=O)OC)cc(-n2c(C)cc(C(=O)COC(=O)CNS(=O)(=O)c3ccc(C)cc3)c2C)c1	> 300 µM (not active)
CCN(CC)c1ccc(N/C=C2/C(=O)NC(=O)N(Cc3ccccc3)C2=O)cc1	> 300 µM (not active)
N#Cc1c(NC(=O)/C=C/C(=O)O)sc2c1CCN(Cc1ccccc1)C2	31 µM (active)

Request: State the recorded EC50 for this entry: Nc1ccc2nc3c(O)nc(S)nc3nc2c1
Result: 7.85 µM (inconclusive)

Request: Next entry: COc1cc(C2C(C#N)=C(N)OC3=C2C(=O)CCC3)cc2c1OCO2 (stereo not drawn)
Result: > 300 µM (not active)

Request: Next entry: O=S(=O)(Nc1ccc(O)c2ccccc12)c1ccc(Br)cc1
Result: 36 µM (active)

Request: Next entry: COc1ccc2nc3ccccc3nc2c1NC(=O)c1ccc(Cl)cc1Cl
Result: 3.15 µM (inconclusive)

Request: Next entry: COc1ccc(S(=O)(=O)Nc2ccc(O)c(Sc3nnc[nH]3)c2)cc1
Result: 10.4 µM (active)

Request: Next entry: O=C(NNC(=O)c1ccc2ccccc2c1O)c1ccccc1Cl
Result: 15.4 µM (inconclusive)

Request: Next entry: CC(C)CNC(=O)C1Nc2ccc(C(F)(F)F)cc2C2C=CCC12 (stereo not drawn)
Result: > 300 µM (not active)

Request: Next entry: COc1ccc2nc3ccccc3nc2c1NC(=O)c1ccccc1Cl
Result: > 300 µM (not active)

Request: Next entry: CC(C)c1cc(C(N)=O)c(NC(=O)c2cccc(COc3ccc(Br)cc3)c2)s1
Result: > 300 µM (not active)

Request: Next entry: CCCNC(=O)c1ccc2c(O)c(O)c(-c3cccc(Br)c3)nc2c1
Result: 1.6 µM (active)

Request: Next entry: COc1ccc(C2C(C#N)=C(N)OC3=C2C(=O)CC(C)(C)C3)c([N+](=O)[O-])c1OC (stereo not drawn)
Result: > 300 µM (not active)

----------
- TEST SYSTEM: Short transient receptor potential channel 4 (Mus musculus, UniProt Q9QUQ5)
- Sequence (Q9QUQ5 whole entry): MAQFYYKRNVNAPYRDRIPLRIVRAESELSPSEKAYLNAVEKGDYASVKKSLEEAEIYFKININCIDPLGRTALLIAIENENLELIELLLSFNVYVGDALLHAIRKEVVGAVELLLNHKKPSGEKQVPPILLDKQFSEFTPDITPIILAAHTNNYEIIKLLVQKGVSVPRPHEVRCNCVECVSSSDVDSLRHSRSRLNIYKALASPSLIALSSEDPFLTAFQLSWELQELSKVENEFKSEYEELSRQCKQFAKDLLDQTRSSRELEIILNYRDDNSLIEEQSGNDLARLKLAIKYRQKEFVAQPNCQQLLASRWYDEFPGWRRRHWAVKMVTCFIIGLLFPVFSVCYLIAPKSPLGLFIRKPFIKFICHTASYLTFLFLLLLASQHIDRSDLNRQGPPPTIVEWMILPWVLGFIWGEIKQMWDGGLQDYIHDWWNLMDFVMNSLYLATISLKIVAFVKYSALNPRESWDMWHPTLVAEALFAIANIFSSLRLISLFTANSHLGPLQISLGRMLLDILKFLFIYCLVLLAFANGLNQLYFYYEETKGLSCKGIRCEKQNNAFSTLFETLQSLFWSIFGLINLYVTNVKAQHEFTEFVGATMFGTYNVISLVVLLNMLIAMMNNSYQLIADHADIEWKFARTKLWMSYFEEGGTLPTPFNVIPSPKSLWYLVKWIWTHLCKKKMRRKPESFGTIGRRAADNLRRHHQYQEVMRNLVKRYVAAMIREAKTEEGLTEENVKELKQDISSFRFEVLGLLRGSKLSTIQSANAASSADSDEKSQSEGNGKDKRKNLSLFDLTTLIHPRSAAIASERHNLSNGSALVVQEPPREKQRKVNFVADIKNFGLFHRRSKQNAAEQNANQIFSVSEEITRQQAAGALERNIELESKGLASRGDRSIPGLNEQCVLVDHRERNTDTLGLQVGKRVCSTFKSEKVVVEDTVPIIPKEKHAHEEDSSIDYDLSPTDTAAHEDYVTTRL
- EXPERIMENTAL DETAILS: mouse TRPC4 channel inhibitors, dose response, cell-based, HEK293 TRPC4/mu-opioid, Fluo-4 calcium (AID 434942);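 note: potency of inhibitors blocking the TRPC4 calcium response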
- Assay type: functional
The source made the active and inactive calls.
MEASUREMENT KIND: EC50

Consider the following illustrative entries.
COMPOUND	EC50
OC1(c2ccccc2)C[N+](c2ccccc2)=C2SCCN21 (configuration not stated)	1.5 µM (active)
OCC1(CCc2ccccc2)CCN(Cc2ccc3nsnc3c2)CC1	8.41 µM (active)
CCCc1nc2oc3c(NCCN(C)C)ncnc3c2c2c1CCCC2	1.68 µM (active)

Request: State the recorded EC50 for this entry: c1ccc(-c2nc(NCc3ccco3)c3ccccc3n2)nc1
Result: 0.335 µM (active)

Request: Next entry: CCOC(=O)C1(CC2CC2)CCN(Cc2ccc(O)c(Cl)c2)CC1
Result: 0.376 µM (active)

Request: Next entry: Cc1cccn2c(=O)c(/C=N/O)c(N3CCCC3)nc12
Result: 1.88 µM (active)

Request: Next entry: CN(C)CCCN(C(=O)c1ccc(S(=O)(=O)N(C)C)cc1)c1nc2ccc(F)cc2s1
Result: 5.96 µM (active)

Request: Next entry: CCCCNC(=Nc1ccc(Cl)cc1)c1cccnc1
Result: 7.5 µM (active)

Request: Next entry: O=C(C[n+]1cc2ccccc2c2ccccc21)c1ccccc1
Result: 3.76 µM (active)

----------
- TEST SYSTEM: Heat shock protein HSP 90-alpha (Homo sapiens, UniProt P07900)
- Format: functional, organism-based
Activity calls are given as the source filed them.
// AC50 lookup, one value per entry

COMPOUND	MEASUREMENT KIND	ASSAY VALUE
Cc1ccc(NS(=O)(=O)c2ccc(N3CCN(c4ccc(O)cc4)CC3)c([N+](=O)[O-])c2)c(C)c1	AC50	4.4 µM (active)
O=C(Nc1ccccc1N1CCOCC1)c1ccc([N+](=O)[O-])s1	AC50	7.97 µM (active)
COc1ccc2c(c1)[C@H]1[C@H](CO2)[C@H](c2ccccc2)[C@]2(C)C(=O)Nc3ccc(Cl)cc3C(=O)N12	AC50	3.14 µM (active)
COc1ccc(C(C)(C)C)cc1NC(=O)Nc1ccc2c(c1)OCO2	AC50	7.91 µM (active)

Request: State the recorded AC50 for this entry: Cc1ccc(-c2cc(C(=O)N3N=C(C(F)F)CC3(O)C(F)F)c3ccccc3n2)cc1C (stereo not given)
Result: 6.22 µM (active)
